Where do the numbers come from? From the NIST ThermoML archive (doi:10.1021/acs.jced.6b00269).

details: 323.15 K; 101.33 kPa; Liquid; Vibrating tube method
assay-metric: mass density (kg/m3)
One number for each entry, in kg/m3.

CC[P+](CC)(CC)COCCOC.O=S(=O)([N-]S(=O)(=O)C(F)(F)F)C(F)(F)F; 1337.9
CC[P+](CC)(CC)COCCOC.O=[N+]([O-])c1cn[n-]c1; 1122.2
CCCCCCCC[P+](CC)(CC)CC.O=[N+]([O-])c1c[n-]cn1 [triethyloctylphosphonium 4-nitroimidazolide]; 1014.3
CCCCCCCCCCCCCC[P+](CCCCCC)(CCCCCC)CCCCCC.O=[N+]([O-])c1cn[n-]c1 [trihexyl(tetradecyl)phosphonium 4-nitropyrazolide]; 924.5
CCCC[S+]1CCCC1.O=S(=O)([N-]S(=O)(=O)C(F)(F)F)C(F)(F)F; 1431.9

For each of the compounds below, state mass density.
1. CCCCCCCCC[P+](CC)(CC)CC.O=[N+]([O-])c1cn[n-]c1 [triethylnonylphosphonium 4-nitropyrazolide]
2. CCCCCCCCCCCCCC[P+](CCCCCC)(CCCCCC)CCCCCC.N#Cc1nc[n-]c1C#N [trihexyl(tetradecyl)phosphonium 4,5-dicyanoimidazolide]

Out:
1007
905.2
